System: hMPV A2 TN/94-49
Assay: HMPV antiviral assay Method 2 (LLC-MK2 cells with CP-100-356, ATP-Lite)
Type: cell-based
Settings: hMPV A2 TN/94-49, LLC-MK2 cells, 4 μM CP-100-356, Method 2
pEC50: −log10 of the molar value.
Measurement Label: pEC50

Exercise: Recorded pEC50 for COc1cc(C(=O)NC[C@](O)(c2cccc(F)c2)c2cc3c(c(-c4cc(F)c(F)cc4C(N)=O)n2)OC[C@]3(C)C(N)=O)cc2cn(C3(F)CC3)nc12 [Example 406] , please?
Key: < 6.70

Exercise: Then COc1cc(C(=O)NC[C@@](O)(c2cccc(F)c2)c2cc3c(c(-c4cccc(Cl)c4Cl)n2)OC[C@]3(C)C(N)=O)cc2oc(C3CC3)nc12 [Example 292] ?
Key: > 6.70

Exercise: Then [2H]C([2H])([2H])NC(=O)[C@@]1(C)COc2c1cc([C@@](O)(CNC(=O)c1cc(OC)c3nc(C4CC4)oc3c1)c1ccccc1)nc2-c1cc(Cl)c(F)cc1F [Example 110] ?
Key: > 6.70

====

System: hMPV A2 TN/94-49
Experiment: HMPV antiviral assay Method 2 (LLC-MK2 cells with CP-100-356, ATP-Lite)
Format: cell-based
Settings: hMPV A2 TN/94-49, LLC-MK2 cells, 4 μM CP-100-356, Method 2
pEC50: −log10 of the molar value.
This listing pairs compounds with measured pEC50.

Some entries whose results are on file:
COc1cc(C(=O)NC[C@@](O)(c2ccnc(F)c2)c2cc3c(c(-c4cccc(Cl)c4Cl)n2)OC[C@]3(C)C(N)=O)cc2cn(C3CC3)nc12 : > 6.70
COc1cc(C(=O)NCC(O)(c2cc(F)nc(F)c2)c2cc3c(c(-c4cccc(Cl)c4Cl)n2)OC[C@]3(C)C(N)=O)cc2cn(C(F)F)nc12 (stereo partly drawn) : > 6.70
C[C@]1(C(N)=O)COc2c1cc([C@@](O)(CNC(=O)c1ccc3nc(C4CCC4)oc3c1)c1ccccc1)nc2-c1cc(Cl)c(F)cc1F : < 6.70
C[C@]1(C(N)=O)COc2c1cc([C@@](O)(CNC(=O)c1cc(OC3CC3)c3nn(C(F)F)cc3c1)c1ccc(F)cc1)nc2-c1ccc2c(c1Cl)OC(F)(F)O2 : > 6.70
COc1cc(C(=O)NC[C@@](O)(c2cccc(F)n2)c2cc3c(c(-c4cc(Cl)c(F)cc4F)n2)OC[C@]3(C)C(N)=O)cc2cn(C3(F)CC3)nc12 : > 6.70

Exercise: Recorded pEC50 for "COc1cc(C(=O)NC[C@](O)(c2cc3c(c(-c4cc(F)c(F)cc4F)n2)OC[C@]3(C)C(N)=O)C2CC(F)(F)C2)cc2cn(C(F)F)nc12" , please?
Key: > 6.70

Exercise: Then "COc1cc(C(=O)NC[C@@](O)(c2cccc(F)c2)c2cc3c(c(-c4cccc(Cl)c4Cl)n2)OC[C@]3(C)C(N)=O)cc2cc(C3CC3)nn12" ?
Key: > 6.70

Exercise: Then "COc1ccc([C@](O)(CNC(=O)c2cc(OC)c3nn(C4(F)CC4)cc3c2)c2cc3c(c(-c4cc(Cl)c(F)cc4F)n2)OC[C@]3(C)C(N)=O)cc1" ?
Key: > 6.70

Exercise: Then "COc1cc(C(=O)NC[C@@](O)(c2cccc(F)c2)c2cc3c(c(-c4cc(Cl)c(F)cc4F)n2)OC[C@]3(C)C(N)=O)cc2cc(C3CC3)nn12" ?
Key: > 6.70

====

Tested on: hMPV A2 TN/94-49
Assay: HMPV antiviral assay Method 2 (LLC-MK2 cells with CP-100-356, ATP-Lite)
Type: cell-based
Conditions: hMPV A2 TN/94-49, LLC-MK2 cells, 4 μM CP-100-356, Method 2
pEC50: −log10 of the molar value.
This listing pairs compounds with measured pEC50.

Some entries whose results are on file:
C[C@]1(C(N)=O)COc2c1cc([C@@](O)(CNC(=O)c1cc(OC3CC3)c3nn(C4CC4)cc3c1)c1ccccc1)nc2-c1cc(Cl)c(F)cc1F : > 6.70
COc1c(F)ccc(-c2nc([C@@](O)(CNC(=O)c3cc(OC)c4nn(C5(F)CC5)cc4c3)c3ccccc3)cc3c2OC[C@]3(C)C(N)=O)c1Cl : > 6.70

Exercise: Recorded pEC50 for "COc1cc(C(=O)NC[C@@](O)(c2ccccc2)c2cc3c(c(-c4ccc(F)c(Cl)c4Cl)n2)OC[C@]3(C)C(N)=O)cc2cn(C3(F)CC3)nc12" , please?
Key: > 6.70

Exercise: Then "COc1cc(C(=O)NC[C@@](O)(c2ccccc2)c2cc3c(c(-c4cccc(Cl)c4Cl)n2)OC[C@]3(C)C(N)=O)cc2cn(C3CC3)nc12" ?
Key: > 6.70

Exercise: Then "COc1cc(C(=O)NC[C@@](O)(c2ccc(F)cc2)c2cc3c(c(-c4ccc(F)c(Cl)c4Cl)n2)OC[C@]3(C)C(N)=O)cc2cn(C3CC3)nc12" ?
Key: > 6.70

Exercise: Then "COc1cc(C(=O)NC[C@@](O)(c2cccc(S(N)(=O)=O)c2)c2cc3c(c(-c4cc(Cl)c(F)cc4F)n2)OC[C@]3(C)C(N)=O)cc2cn(C3CC3)nc12" ?
Key: < 6.70

Exercise: Then "COc1cc(C(=O)NC[C@@](O)(c2ccnc(C)c2)c2cc3c(c(-c4cc(Cl)c(F)cc4F)n2)OC[C@]3(C)C(N)=O)cc2cn(C3CC3)nc12" ?
Key: > 6.70

Exercise: Then "COc1cc(C(=O)NC[C@@](O)(c2cccnc2)c2cc3c(c(-c4cc(Cl)c(F)cc4F)n2)OC[C@]3(C)C(N)=O)cc2cn(C3CC3)nc12" ?
Key: > 6.70

Exercise: Then "COc1cc(C(=O)NC[C@@](O)(c2cnn(C)c2)c2cc3c(c(-c4cc(Cl)c(F)cc4F)n2)OC[C@]3(C)C(N)=O)cc2cn(C3CC3)nc12" ?
Key: < 6.70

====

System: hMPV A2 TN/94-49
Assay: HMPV antiviral assay Method 2 (LLC-MK2 cells with CP-100-356, ATP-Lite)
Format: cell-based
Details: hMPV A2 TN/94-49, LLC-MK2 cells, 4 μM CP-100-356, Method 2
Measurement Label: EC50

Some entries whose results are on file:
COc1cc(C(=O)NC[C@@](O)(c2ccccc2)c2cc3c(c(-c4cccc5c4OCO5)n2)OC[C@]3(C)C(N)=O)cc2cn(C3(F)CC3)nc12 : > 200 nM
Cc1nc2c(OC(F)F)cc(C(=O)NC[C@](O)(c3cc4c(c(-c5cc(Cl)c(F)cc5F)n3)OC[C@]4(C)C(N)=O)c3ccccc3F)cc2cc1Br : > 200 nM
Cc1cc(C(=O)NC[C@@](O)(c2ccccc2)c2cc3c(c(-c4cc(Cl)c(F)cc4F)n2)OC[C@]3(C)C(N)=O)cc2cn[nH]c12 : < 200 nM
COc1cc(C(=O)NC[C@@](O)(c2cccc(F)c2)c2cc3c(c(-c4ccc(C(C)(C)O)cc4)n2)OC[C@]3(C)C(N)=O)cc2cn(C3(F)CC3)nc12 : > 200 nM
COc1cc(C(=O)NC[C@](O)(c2cc3c(c(-c4ccc(F)c(Cl)c4Cl)n2)OC[C@]3(C)C(N)=O)C(F)(F)F)cc2cn(C(F)F)nc12 : < 200 nM
COc1cc(C(=O)NC[C@@](O)(c2ccccc2)c2cc3c(c(-c4ccc5c(c4)OC(F)(F)O5)n2)OC[C@]3(C)C(N)=O)cc2cn(C3(F)CC3)nc12 : < 200 nM
C[C@]1(C(N)=O)COc2c1cc([C@@](O)(CNC(=O)c1cc(OC3CC3)c3ncc(Cl)cc3c1)c1ccccc1)nc2-c1cc(F)c(F)cc1F : < 200 nM
C[C@]1(C(N)=O)COc2c1cc([C@@](O)(CNC(=O)c1cc(Cl)c3[nH]ncc3c1)c1ccccc1)nc2-c1cc(Cl)c(F)cc1F : > 200 nM

Exercise: Recorded EC50 for "COc1cc(C(=O)NC[C@@](O)(c2cnoc2)c2cc3c(c(-c4cc(Cl)c(F)cc4F)n2)OC[C@]3(C)C(N)=O)cc2cn(C3CC3)nc12" , please?
Key: < 200 nM

Exercise: Then "C[C@]1(C(N)=O)COc2c1cc([C@@](O)(CNC(=O)c1ccc3nc(C4CC4)oc3c1)c1cccc(F)c1)nc2-c1cc(C(F)(F)F)c(F)cc1F" ?
Key: > 200 nM

====

This listing pairs molecules with measured EC50.
System: hMPV A2 TN/94-49
Assay: HMPV antiviral assay Method 2 (LLC-MK2 cells with CP-100-356, ATP-Lite)
Assay type: cell-based
Conditions: hMPV A2 TN/94-49, LLC-MK2 cells, 4 μM CP-100-356, Method 2

COc1cc(C(=O)NC[C@@](O)(c2ccccc2)c2cc3c(c(-c4ccc(F)c(F)c4Cl)n2)OC[C@]3(C)C(N)=O)cc2cn(C3(F)CC3)nc12 : < 200 nM

Exercise: Recorded EC50 for "COc1cc(C(=O)NC[C@@](O)(c2ccccc2)c2cc3c(c(-c4cc(Cl)c(F)cc4F)n2)OC[C@]3(C)C(N)=O)cc2cc(C(F)F)nnc12" , please?
Key: < 200 nM

Exercise: Then COc1cc(C(=O)NCC(O)(c2cc3c(c(-c4cc(Cl)c(F)cc4F)n2)OC[C@]3(C)C(N)=O)c2ccc(Cl)s2)cc2cn(C3CC3)nc12 (stereo partly drawn) ?
Key: > 200 nM
